Exercise: state measured pIC50 for each of the molecules provided.
TGT: 17-beta-hydroxysteroid dehydrogenase type 1 (Homo sapiens)
Sequence (P14061 whole entry): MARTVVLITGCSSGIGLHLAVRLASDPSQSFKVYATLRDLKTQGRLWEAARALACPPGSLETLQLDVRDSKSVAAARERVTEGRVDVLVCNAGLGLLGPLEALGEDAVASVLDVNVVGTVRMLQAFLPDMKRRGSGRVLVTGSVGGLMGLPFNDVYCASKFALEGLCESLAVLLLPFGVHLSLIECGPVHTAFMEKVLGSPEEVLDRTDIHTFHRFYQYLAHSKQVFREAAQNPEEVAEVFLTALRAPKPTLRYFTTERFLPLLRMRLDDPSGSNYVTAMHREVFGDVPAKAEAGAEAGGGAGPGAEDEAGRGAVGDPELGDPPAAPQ
TEST_METHOD_NOTES: Inhibition of human placenta cytosolic 17betaHSD1 using [3H]E1 as substrate after 10 mins by radioflow detection assay
Please report pIC50 as the negative decimal logarithm of the molar concentration, giving only the number.

Input line: Requested read-out: pIC50. Entry: "O=S(=O)(CC(F)(F)F)Nc1cccc(-c2c(O)ccc3cc(-c4cccc(O)c4)ccc23)c1"
Output line: 7.49

Input line: # repeat for "Cc1ccc(S(=O)(=O)Nc2cccc(-c3c(O)ccc4cc(-c5cccc(O)c5)ccc34)c2)cc1"
Output line: 7.46

Input line: Same lookup for "O=[N+]([O-])c1cccc(S(=O)(=O)Nc2cccc(-c3c(O)ccc4cc(-c5cccc(O)c5)ccc34)c2)c1" , please.
Output line: 7.70

Input line: Also "CC(=O)Nc1ccc(S(=O)(=O)Nc2cccc(-c3c(O)ccc4cc(-c5cccc(O)c5)ccc34)c2)cc1" , if possible.
Output line: 7.92

Input line: Check "Cc1cccc(S(=O)(=O)Nc2cccc(-c3c(O)ccc4cc(-c5cccc(O)c5)ccc34)c2)c1" too.
Output line: 7.48

Input line: And what about the molecule "O=[N+]([O-])c1ccc(S(=O)(=O)Nc2cccc(-c3c(O)ccc4cc(-c5cccc(O)c5)ccc34)c2)cc1" ?
Output line: 7.31

Input line: What do you get for "O=S(=O)(Nc1cccc(-c2c(O)ccc3cc(-c4cccc(O)c4)ccc23)c1)c1cccc(O)c1" ?
Output line: 7.85

Input line: And what about the molecule "Cc1ccccc1S(=O)(=O)Nc1cccc(-c2c(O)ccc3cc(-c4cccc(O)c4)ccc23)c1" ?
Output line: 7.51

Input line: Also check "N#Cc1ccc(S(=O)(=O)Nc2cccc(-c3c(O)ccc4cc(-c5cccc(O)c5)ccc34)c2)cc1"
Output line: 7.60

Input line: Cool, now "O=S(=O)(Nc1cccc(-c2c(O)ccc3cc(-c4cccc(O)c4)ccc23)c1)c1cc(F)c(Br)cc1F"
Output line: 7.34

Input line: What would you report for "O=[N+]([O-])c1ccccc1S(=O)(=O)Nc1cccc(-c2c(O)ccc3cc(-c4cccc(O)c4)ccc23)c1" ?
Output line: 7.77

Input line: # iterate: "N#Cc1ccccc1S(=O)(=O)Nc1cccc(-c2c(O)ccc3cc(-c4cccc(O)c4)ccc23)c1"
Output line: 7.85
